# procedure summary: in vivo
# experimental setup: mouse, in vivo, po, LD50, ICR mice, female; mortality at 7 days; Litchfield-Wilcoxon method
property name: LD50 at 168 h (mg/kg)

{"columns": ["compound", "observed value"],
 "data": [
  ["CN1CCC2=C(C1)c1ccccc1Cc1ccccc12 [MO-8282]", 454]
]}

---

# procedure summary: Acute oral toxicity in rats
# experimental setup: rat, in vivo, Wistar rats, male, mortality at 7 days, Litchfield-Wilcoxon method

{"columns": ["entry smiles", "LD50 at 168 h"],
 "data": [
  ["CN1CCC2=C(C1)c1ccccc1Cc1ccccc12", "630 mg/kg"]
]}

// provenance: patent US4447437A
